molecular target: DNA repair protein RAD52 homolog (Homo sapiens); format: functional, biochemical
Sequence (P43351 whole entry): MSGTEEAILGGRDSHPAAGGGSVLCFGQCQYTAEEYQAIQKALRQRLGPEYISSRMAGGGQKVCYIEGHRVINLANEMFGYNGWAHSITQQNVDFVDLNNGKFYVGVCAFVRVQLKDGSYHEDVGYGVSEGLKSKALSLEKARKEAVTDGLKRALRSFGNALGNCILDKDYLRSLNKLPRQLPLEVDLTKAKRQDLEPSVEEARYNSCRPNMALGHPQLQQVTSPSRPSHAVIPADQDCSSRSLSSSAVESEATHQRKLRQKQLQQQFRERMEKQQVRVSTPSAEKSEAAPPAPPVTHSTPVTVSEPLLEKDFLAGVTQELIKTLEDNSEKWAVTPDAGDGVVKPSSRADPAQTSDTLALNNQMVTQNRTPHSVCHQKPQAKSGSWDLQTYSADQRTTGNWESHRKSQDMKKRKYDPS
Active and inactive are the calls of the source.

# MOLECULE, AC50
records = [
    ("CCN1CCN(C(S)=Nc2ccc3nc(N4CCN(C)CC4)cc(C)c3c2)CC1", "4.49 µM (active)"),
    ("OC(CN1CCNCC1)Cn1c2ccccc2c2ccccc21 (configuration not stated)", "20.7 µM (active)"),
    ("CC(C(=O)c1ccc(-c2ccccc2)cc1)[n+]1cccc(NC(=O)c2ccccc2)c1 (configuration not stated)", "19.1 µM (active)"),
    ("Cc1c(CCOC(=O)CC23CC4CC(CC(C)(C4)C2)C3)sc[n+]1Cc1ccc([N+](=O)[O-])cc1", "15.6 µM (active)"),
    ("CN/C(=C/[N+](=O)[O-])NCCSCc1ccc(CN(C)C)o1", "18 µM (active)"),
    ("O=C(CN1CCCCC1)n1c2ccccc2c2ccccc21", "5.64 µM (active)"),
    ("CN(C)CCNC(=O)c1cccc(-c2cnc3c(NC=O)cc(/C=C/c4ccccc4)cn23)c1", "2.21 µM (active)"),
]
